- experimental.conditions: Liquid; Ebulliometric method (Recirculating still)
Listed below: Normal boiling temperature values for each entry.
Hi! Could you send only the number? It should be in °C, unit omitted.

COc1ccccc1 153.62
C1CCCCC1 80.63

Output Normal boiling temperature of c1ccccc1 80.01

Provide only the value of recorded Normal boiling temperature for CCCCCO 137.63
